Source: patent US20140113904A1

Experiment: Compound 2 concentrations in plasma by LC-MS/MS
Assay type: in vivo, SCID mice
Conditions: female, SCID, mouse, plasma, oral, 0.3 mg/kg, Plasma Compound 2 Concentration (μM) Mean ± SEM, 0.3 mg/kg single oral dose, 24 h
Observation Type: concentration at 24 h (µM)
Express the result in µM but write the number alone.

The reported value for "CCN1C(=O)CNc2ncc(-c3ccc(-c4nc[nH]n4)nc3C)nc21" in terms of concentration at 24 h is 0

----------
Assay: Compound 2 concentrations in plasma by LC-MS/MS
Type: in vivo, SCID mice
Settings: female, SCID, mouse, plasma, oral, 0.1 mg/kg, Plasma Compound 2 Concentration (μM) Mean ± SEM, 0.1 mg/kg single oral dose, 1 h
Observation Type: concentration at 1 h (µM)
Reply with just the number (in µM).

Briefly, concentration at 1 h measured for CCN1C(=O)CNc2ncc(-c3ccc(-c4nc[nH]n4)nc3C)nc21 [Compound 2] : 0.04

----------
Observation Type: IC50 (nM)
Give the value in nM but do not write nM after it.

Reading of IC50 for "CC(C)(O)c1ccc(-c2cnc3c(n2)N(CC2CCOCC2)CC(=O)N3)cn1" with UniProt:P07333: 2700

----------
Assay: Compound 2 concentrations in plasma by LC-MS/MS
Format: in vivo, SCID mice
Conditions: female, SCID, mouse, plasma, oral, 0.3 mg/kg, Plasma Compound 2 Concentration (μM) Mean ± SEM, 0.3 mg/kg single oral dose, 3 h
Observation Type: concentration at 3 h

// concentration at 3 h lookup, compound = "CCN1C(=O)CNc2ncc(-c3ccc(-c4nc[nH]n4)nc3C)nc21" , result: 0.07 µM

----------
System: pAktS473
Assay: PC3 cellular activity: pAktS473 (mTORC2) inhibition
Format: cell-based
Details: Homo sapiens, PC-3; average of 2 or more experiments; read-out: PC3 Cellular Activity pAkt IC50
Observation Type: pIC50
Note: pIC50 values are expressed as the negative base-10 logarithm of concentration in M.

Record "O=c1[nH]c2ncc(-c3ccc(-c4nc[nH]n4)cc3)nc2n1CCC1CCOCC1" , field pIC50: 7.74

Noted for "CC(C)(O)c1ccc(-c2cnc3[nH]c(=O)n(CC4CCOCC4)c3n2)cn1" : its pIC50 reads 5.59

----------
Assay: Compound 2 concentrations in plasma by LC-MS/MS
Type: in vivo, SCID mice
Details: female, SCID, mouse, plasma, oral, 1 mg/kg, Plasma Compound 2 Concentration (μM) Mean ± SEM, 1 mg/kg single oral dose, 3 h
Observation Type: concentration at 3 h (µM)
I only need the number, in µM, no unit after it.

Briefly, concentration at 3 h measured for "CCN1C(=O)CNc2ncc(-c3ccc(-c4nc[nH]n4)nc3C)nc21" : 0.34

----------
Assay: Compound 2 concentrations in plasma by LC-MS/MS
Type: in vivo, SCID mice
Conditions: female, SCID, mouse, plasma, oral, 2 mg/kg, 2 mg/kg QD, 1 h after last dose; read-out: Plasma Concentration (μM) Mean ± SEM
Observation Type: concentration at 1 h (µM)
Quick note: give the figure in µM, leave out the unit.

"CCN1C(=O)CNc2ncc(-c3ccc(-c4nc[nH]n4)nc3C)nc21" yielded concentration at 1 h of 1.02

----------
Assay: Compound 2 concentrations in plasma by LC-MS/MS
Assay type: in vivo, SCID mice
Settings: female, SCID, mouse, plasma, po, 1 mg/kg, 1 mg/kg QD (BID/QD study); read-out: total plasma AUC0-24 h
Observation Type: AUC(0-t) (µM·h)
Quick reminder: number only, in µM·h, skip the unit.

# AUC(0-t) of "CCN1C(=O)CNc2ncc(-c3ccc(-c4nc[nH]n4)nc3C)nc21" = 2.95
